Value source: patent US9573930B2

As a worked illustration, we turn to IC50 data collected for full-length human LSD1 (Homo sapiens (Human)).

- Line notation: "CNC(=O)c1ccc(-c2c(-c3ccc(C#N)cc3)nc(N3CCC(N)CC3)n(C)c2=O)cc1F"
  Target or test system: "full-length human LSD1 (Homo sapiens (Human))"
  Endpoint name: "IC50"
  Reading: "< 100 nM"

Incoming: Request body: readout IC50, system full-length human LSD1 (Homo sapiens (Human)), query CN(C)c1ccc(-c2c(-c3ccc(C#N)c(F)c3)nc(N3CCCNCC3)n(C)c2=O)cn1 . Return the value.
Outgoing: < 100 nM

Incoming: Request body: readout IC50, system full-length human LSD1 (Homo sapiens (Human)), query COc1ccc(-c2c(-c3ccc(C#N)cc3)nc(N3CCCNCC3)n(C)c2=O)cn1 . Return the value.
Outgoing: < 100 nM

Incoming: Request body: readout IC50, system full-length human LSD1 (Homo sapiens (Human)), query CCn1c(N2CCC(N)CC2)nc(-c2ccc(C#N)c(F)c2)cc1=O . Return the value.
Outgoing: 100 to 1000 nM

Incoming: Request body: readout IC50, system full-length human LSD1 (Homo sapiens (Human)), query Cn1c(N2CCC(N)CC2)nc(-c2ccc(C#N)c(F)c2)c(-c2cc(F)cc(F)c2)c1=O . Return the value.
Outgoing: < 100 nM

Incoming: Request body: readout IC50, system full-length human LSD1 (Homo sapiens (Human)), query CNc1ccc(-c2c(-c3ccc(C#N)c(F)c3)nc(N3CCC(N)CC3)n(C)c2=O)cc1 . Return the value.
Outgoing: < 100 nM

Incoming: Request body: readout IC50, system full-length human LSD1 (Homo sapiens (Human)), query Cn1c(N2CCC(N)CC2)nc(-c2ccc(C#N)c(F)c2)c(-c2ccc(F)c(F)c2)c1=O . Return the value.
Outgoing: < 100 nM

Incoming: Request body: readout IC50, system full-length human LSD1 (Homo sapiens (Human)), query N#Cc1ccc(-c2cc(=O)n(CC3CC3)c(N3CCC(N)CC3)n2)cc1F . Return the value.
Outgoing: 100 to 1000 nM
